biological target: human MC4R; assay: Human MC4R radioligand binding assay ([125I] NDP-MSH); settings: Table 6, hMCR binding selectivity
pIC50: −log10 of the molar value.
QUANTITY_KIND: pIC50

>>> print(df.to_string())
                              line_notation  observed_result
0  O=C(/C=C/c1ccc(Cl)cc1)NC[C@@H]1CCN(CC(c2ccccc2)c2ccccc2)C(=O)[C@H](CCN2CCCCC2)N1             5.22
1  N=C(N)NCCC[C@@H]1N[C@H](CNC(=O)c2ccc3ccccc3c2)CCN(CC(c2ccccc2)c2ccccc2)C1=O             5.48

====

Each item that follows carries a reported IC50.
target: human MC5R (Homo sapiens); construct: purchased Perkin Elmer RBXMC5M400UA; experiment: Human MC5R radioligand binding assay ([125I] NDP-MSH displacement, hMC5R membranes); conditions: hMC5R assay as in Example 102; compounds tested as trifluoroacetate or hydrochloride salts, or as free base
QUANTITY_KIND: IC50

In [3]: df
Out[3]:
                                   compound  quantity_kind  observed_result
0  CN1[C@H](CNC(=O)c2ccc3cc(Br)ccc3c2)CCN(CC(c2ccccc2)c2ccccc2)C(=O)[C@@H]1CCCN [Compound 62]           IC50        < 1000 nM
1  N=C(N)NCCC[C@@H]1N[C@H](CNC(=O)COc2ccccc2)CCN(CC(c2ccccc2)c2ccccc2)C1=O [Compound 162]           IC50       < 10000 nM
2  O=C(/C=C/c1ccc(Cl)cc1)NC[C@@H]1CCN(CC(c2ccccc2)c2ccccc2)C(=O)[C@H](CCCN2CCCCC2)N1 [Compound 262]           IC50         < 100 nM
3  NCCC[C@@H]1N[C@H](CNC(=O)/C=C/c2ccc(Cl)cc2)CCN(CC(c2ccccc2)c2ccccc2)C1=O [Compound 214]           IC50         < 100 nM

====

target: human MC5R (Homo sapiens, UniProt P33032); construct: purchased Perkin Elmer RBXMC5M400UA; assay: Human MC5R radioligand binding assay ([125I] NDP-MSH displacement, hMC5R membranes); details: hMC5R assay as in Example 102; compounds tested as trifluoroacetate or hydrochloride salts, or as free base
Sequence (P33032 whole entry): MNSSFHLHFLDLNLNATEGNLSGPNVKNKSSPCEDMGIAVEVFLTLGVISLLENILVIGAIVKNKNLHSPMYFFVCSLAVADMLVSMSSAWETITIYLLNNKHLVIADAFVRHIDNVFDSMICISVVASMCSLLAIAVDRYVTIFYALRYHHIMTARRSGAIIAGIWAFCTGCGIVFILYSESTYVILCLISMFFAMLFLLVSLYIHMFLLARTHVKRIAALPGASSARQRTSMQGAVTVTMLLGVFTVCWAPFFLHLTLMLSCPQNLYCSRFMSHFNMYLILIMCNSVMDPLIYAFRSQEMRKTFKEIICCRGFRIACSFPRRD
IC50 values, listed per item
QUANTITY_KIND: IC50

In [3]: df
Out[3]:
                                   molecule  observed_result
0  N=C(N)NCCC[C@@H]1N[C@H](CNC(=O)C2CCCCC2)CCN(CC(c2ccccc2)c2ccccc2)C1=O [Compound 139]       < 10000 nM
1  N=C(N)NCCC[C@@H]1N[C@H](CNC(=O)c2ccc(Cl)c(Cl)c2)CCN(CC(c2ccccc2)c2ccccc2)C1=O [Compound 152]         < 100 nM
2  N=C(N)NCCC[C@@H]1N[C@H](CNC(=O)c2ccc3cc(Br)ccc3c2)CCN(CC(c2ccccc2)c2ccccc2)C1=O [Compound 181]          < 10 nM
3  N=C(N)NCCC[C@@H]1N[C@H](CNC(=O)C23CC4CC(CC(C4)C2)C3)CCN(CC(c2ccccc2)c2ccccc2)C1=O [Compound 161]       < 10000 nM
4  NCC[C@@H]1N[C@H](CNC(=O)c2ccc(Cl)c(Cl)c2)CCN(Cc2cc(Cl)cc(Cl)c2)C1=O [Compound 325]        < 1000 nM
5  Cc1c(C(=O)NC[C@@H]2CCN(CC(c3ccccc3)c3ccccc3)C(=O)[C@H](CCCNC(=N)N)N2)cnn1-c1ccccc1 [Compound 186]         < 100 nM
6  O=C(/C=C/c1ccc(F)cc1)NC[C@@H]1CCN(CC(c2ccccc2)c2ccccc2)C(=O)[C@H](CCCNC2CCCCC2)N1 [Compound 231]          < 10 nM

Source: patent EP2257297B1
